- targetDesc: T1, rat pancreatic islet (wild type) GIP-receptor stably expressed on CHO-K1 cells (rat, UniProt P43219 19-455)
- T1 construct: whole, on cells; also called wtGIPR cells; wtGIP-R1 cells
- T1 sequence (looked up): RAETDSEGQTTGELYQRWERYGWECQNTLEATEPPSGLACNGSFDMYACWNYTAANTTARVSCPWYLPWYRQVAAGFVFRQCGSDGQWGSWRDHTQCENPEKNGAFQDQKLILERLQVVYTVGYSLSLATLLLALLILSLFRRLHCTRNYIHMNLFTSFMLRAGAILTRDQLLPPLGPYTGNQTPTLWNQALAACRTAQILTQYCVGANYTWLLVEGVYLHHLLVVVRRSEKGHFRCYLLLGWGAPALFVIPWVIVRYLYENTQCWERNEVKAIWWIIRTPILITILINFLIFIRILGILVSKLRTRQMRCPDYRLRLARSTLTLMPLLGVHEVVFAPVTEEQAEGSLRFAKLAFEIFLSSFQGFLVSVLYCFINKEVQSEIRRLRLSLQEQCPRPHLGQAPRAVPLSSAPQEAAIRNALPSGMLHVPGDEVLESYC
- assaySummary: competition with 125I-GIP on intact CHO-K1 cells expressing rat GIP receptor
Ends that are not written are not given here.
binders and their reported IC50

binder	unitLabel	IC50
IRQQDFVNWLLAQK-NH2 (peptide, UniProt P01281 17-30, looked up, range 17-30; also called GIP17-30a) [GIP 17-30NH2]	nM	1540
DKIRQQDFVNWLLAQK-NH2 (peptide, UniProt P01281 15-30, looked up, range 15-30; also called GIP15-30a) [GIP 15-30NH2]	nM	1400

Values from patent US20050137135A1
